B1: CPEB3 Ribozyme (parent)
chain: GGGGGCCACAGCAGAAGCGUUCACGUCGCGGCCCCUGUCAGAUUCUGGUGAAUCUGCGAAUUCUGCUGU

Variants of: B1
Experiment: self-cleavage, relative activity (ratio to wild type); higher = more cleavage; co-transcriptional

| alteration | self-cleavage |
| --- | --- |
| C22U U62A | 0.167 |
| C32G U38C | 0.235 |
| C6U C54G | 0.733 |
| G17U C45G | 0.395 |
| C18A C22A | 0.144 |
| C22A G25A | 0.162 |
| C18U G31C | 0.178 |
| G17C C45U | 0.121 |
| C35A A42C | 0.229 |
| G50U U62G | 0.977 |
| U21A G25U | 0.136 |
